GI50 listing for selected molecules.
# System: NCI-H647
# METHOD NOTES: Antiproliferative activity against human NCI-H647 cells expressing wild-type SMARCA2 assessed as cell growth inhibition measured after 7 days by WST-8 assay
# Format: functional
# ASSAY CONDITIONS: NCI-H647, 168 h, time 7 day

Record excerpt, results attached:
Recorded GI50 of Cc1ncsc1-c1ccc([C@H](C)NC(=O)[C@@H]2C[C@@H](O)CN2C(=O)[C@@H](NC(=O)CCCCCCCCCn2cc(-c3cc(-c4ccccc4O)nnc3N)cn2)C(C)(C)C)cc1 , please.
0.076 µM

GET /values?readout=GI50&item= Cc1ncsc1-c1ccc([C@H](C)NC(=O)[C@@H]2C[C@@H](O)CN2C(=O)[C@@H](c2cc(N3CCC(CN4CCC(O[C@H]5C[C@H](Oc6cccc(CN7C8CCC7CN(c7cc(-c9ccccc9O)nnc7N)C8)c6)C5)CC4)CC3)no2)C(C)C)cc1
0.0081 µM

Please give the measured GI50 for this molecule: Cc1ncsc1-c1ccc([C@H](C)NC(=O)[C@@H]2C[C@@H](O)CN2C(=O)[C@@H](NC(=O)[C@H]2CC[C@H](CN3CC4(CCC(n5cc(-c6cc(-c7ccccc7O)nnc6N)cn5)CC4)C3)CC2)C(C)(C)C)cc1
3.1 µM

Kindly review the next molecule as well.
Which GI50 is listed for Cc1ncsc1-c1ccc([C@H](CC[C@H](C)CCN2CCC(c3ccc4c(c3)n(C3CCCC3)c3nc(=O)c5c(Br)cccc5n43)CC2)NC(=O)[C@@H]2C[C@@H](O)CN2C(=O)[C@@H](NC(=O)C2(F)CC2)C(C)(C)C)cc1 ?
0.165 µM
